System: SNB-19 CNS
Assay: NCI-60 one-dose screen, 48 h (100 = growth as untreated, 0 = no growth, -100 = all killed)
Details: 10 µM unless noted
Compounds without any hit were thinned out: in the full panel of roughly 83,000, 20% have a hit.
I would appreciate it if you labelled entries Criterion met when growth is 90% or higher, otherwise Criterion not met.

Here are 5 compounds together with their reported answers.
compound: COc1cccc(C(Cc2ccccc2)Nc2ccccc2)c1OC (stereo not given)
classification: Criterion met

compound: NC(=O)c1cccc(-n2ccc3cc(NC(=O)Nc4cc(C(F)(F)F)cc(C(F)(F)F)c4)ccc32)n1
classification: Criterion not met

compound: CC(=O)OCC(=O)C1(O)C(C)CC2C3C=C(C)C4=Cc5c(cnn5-c5ccccc5)CC4(C)C3C(O)CC21C (stereo not given)
classification: Criterion not met

compound: O=C(/C=C\c1ccc(OCCCCCC[P+](c2ccccc2)(c2ccccc2)c2ccccc2)cc1)c1ccc2c(c1)OCCO2
classification: Criterion not met

compound: CCc1c(Nc2ccc(C)cc2)[nH]c(N)nc1=S
classification: Criterion met

Reported growth reaches at least 90% for O=C(Nc1nc(-c2ccc(Br)cc2)cs1)c1cc(-c2ccc(Br)cc2)nc2ccc(Cl)cc12 ?
Criterion not met

Textbook exercise: given the entry COc1ccc(/C=C/C(=O)c2ccc(OC)c(OC)c2)cc1O , state whether its growth is greater than or equal to 90%.
Criterion not met

Check if growth >= 90% (inclusive). Item: NS(=O)(=O)c1cccc(NC(=O)C(=O)C2C(=O)Nc3ccccc32)c1 (stereo not given)
Criterion met

Dear colleague, could you confirm whether Fc1ccc(-n2cc(COc3ncnc4sc5c(c34)CCCC5)nn2)cc1Cl has growth at or above 90%?
Criterion met

# check: growth of O=C(OCc1nc2nc(Cl)nc(N3CCOCC3)c2[nH]1)n1ccnc1 is greater than or equal to 90%
Criterion not met

Quick check, growth >= 90%? COC(=O)Nc1ccc(NC(=O)OC)cc1
Criterion met

Entry O=C1Nc2c(ccc(Cl)c2Cl)/C1=C/c1ccc(O)cc1 : is its growth no less than 90%?
Criterion not met

Has COc1ccc2c(c1)c(CC(=O)NCCOCCOCC(=O)Nc1ccc(OC)c(C(N)=O)c1O)c(C)n2C(=O)c1ccc(Cl)cc1 a recorded growth greater than or equal to 90%?
Criterion met

# bool: growth of CC(=O)N1N=C(c2cccc(Nc3ccncc3)c2)CC1c1ccc2c(c1)OCO2 (stereo not given) >= 90%
Criterion met
